Could you please report measured pEC50 for the items listed next?
Molecular target: human CB2 receptors (Homo sapiens, UniProt P34972)
Construct: expressed in transfected cells; host or cells: CHO cells
Sequence (P34972 whole entry): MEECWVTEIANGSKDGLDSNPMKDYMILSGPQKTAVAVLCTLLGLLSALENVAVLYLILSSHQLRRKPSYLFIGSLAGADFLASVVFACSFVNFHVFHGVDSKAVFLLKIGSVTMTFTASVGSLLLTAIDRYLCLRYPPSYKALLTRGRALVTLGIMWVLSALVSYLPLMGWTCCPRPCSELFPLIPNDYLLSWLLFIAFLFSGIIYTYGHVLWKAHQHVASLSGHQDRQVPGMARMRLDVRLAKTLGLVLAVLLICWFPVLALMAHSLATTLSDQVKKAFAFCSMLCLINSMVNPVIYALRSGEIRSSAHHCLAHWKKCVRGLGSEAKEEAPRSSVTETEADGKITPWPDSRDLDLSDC
Experiment: functional cAMP assay, human CB2
Assay type: cell-based
Conditions: CHO cells expressing human CB2, cAMP; read-out: human CB2 EC50
Bear in mind: pEC50 is minus log10 of a mol/L concentration; give just that figure.

INPUT: Please give the measured pEC50 for this compound: CC(C)(C)c1nc(N2CCSCC2)c2nnn(Cc3ccccc3Cl)c2n1 [Example 20]
OUTPUT: 8.77

INPUT: Please give the measured pEC50 for this compound: CC(C)(C)c1nc(N2CC[C@](C)(O)C2)c2nnn(Cc3nnnn3C3CC3)c2n1 [Example 230-a]
OUTPUT: 8.57

INPUT: Please give the measured pEC50 for this compound: CC(C)(C)c1nc(N2CCS(=O)(=O)CC2)c2nnn(Cc3ccccc3Cl)c2n1 [Example 21]
OUTPUT: 8.57

INPUT: Please give the measured pEC50 for this compound: Cc1nc(Cn2nnc3c(N4CC[C@H](O)C4)nc(C(C)(C)C)nc32)no1 [Example 149]
OUTPUT: 7.76

INPUT: Please give the measured pEC50 for this compound: CC(C)(C)c1nc(N2CCC(F)(F)C2)c2nnn(Cc3ccccc3S(C)(=O)=O)c2n1 [Example 112]
OUTPUT: 10.00

INPUT: Please give the measured pEC50 for this compound: CC(C)(C)c1nc(N2CCC(F)(F)C2)c2nnn(Cc3c(F)cccc3Cl)c2n1 [Example 72]
OUTPUT: 10.00

INPUT: Please give the measured pEC50 for this compound: CC(C)(C)c1nc(N2CC[C@H](O)[C@@H]2CO)c2nnn(Cc3ccccc3S(C)(=O)=O)c2n1 [Example 168]
OUTPUT: 8.03

INPUT: Please give the measured pEC50 for this compound: Cc1noc(C2CCCN2c2nc(C(C)(C)C)nc3c2nnn3Cc2ccccc2Cl)n1 (centres unmarked) [Example 203]
OUTPUT: 7.27

INPUT: Please give the measured pEC50 for this compound: CC(C)(C)c1nc(OCC2CC2)c2nnn(Cc3ccccc3Cl)c2n1 [Example 210]
OUTPUT: 7.78

INPUT: Please give the measured pEC50 for this compound: CC(C)(C)c1nc(N2CC[C@@](C)(O)C2)c2nnn(Cc3nnnn3C3CC3)c2n1 [Example 230-b]
OUTPUT: 7.87

INPUT: Please give the measured pEC50 for this compound: CC(C)(C)c1nc(N2CCC[C@H]2C#N)c2nnn(Cc3ccccc3Cl)c2n1 [Example 50]
OUTPUT: 9.00

INPUT: Please give the measured pEC50 for this compound: Cc1nnc(Cn2nnc3c(N4CC5(COC5)C4)nc(C(C)(C)C)nc32)o1 [Example 181]
OUTPUT: 7.23

INPUT: Please give the measured pEC50 for this compound: CC(C)(C)c1nc(N2CC[C@@](C)(O)C2)c2nnn(Cc3ccccc3Cl)c2n1 [Example 221-b]
OUTPUT: 8.15

INPUT: Please give the measured pEC50 for this compound: Cc1cc(Cn2nnc3c(N4CCC(F)(F)C4)nc(C(C)(C)C)nc32)n(C)n1 [Example 144]
OUTPUT: 9.40

INPUT: Please give the measured pEC50 for this compound: Cc1nnc(Cn2nnc3c(N4CCC(F)(F)C4)nc(C(C)(C)C)nc32)o1 [Example 128]
OUTPUT: 9.40

INPUT: Please give the measured pEC50 for this compound: Cc1nc(Cn2nnc3c(N4CCC(F)(F)C4)nc(C(C)(C)C)nc32)n(C)n1 [Example 163]
OUTPUT: 8.26

INPUT: Please give the measured pEC50 for this compound: COc1ccc(Cn2nnc3c(N4CC[C@H](O)C4)nc(C(C)(C)C)nc32)cc1 [Example 106]
OUTPUT: 8.32
